# Test system: L1210 leukemia ip in BDF1 mice, survival T/C
# Method Summary: NCI In Vivo Anticancer Drug Screen. Data for tumor model L1210 Leukemia (intraperitoneal) in B6D2F1 (BDF1) mice
# Conditions: endpoint: mean survival time; dose: 400.0 mg/kg/injection; schedule: Q01DX001 (ip); vehicle: saline; higher = longer survival
Inconclusive results and toxic doses are left out.
Quick reference for T/C among some compounds
Measured Property: T/C

Nc1ccn(C2SC(CO)C(O)C2O)c(=O)n1 (stereo unspecified) | 92 % of control
NCCP(=O)(O)c1ccccc1 | 93 % of control
Cc1ccc(S(=O)(=O)N(c2cc(C)ccc2C)c2ccccc2N)cc1 | 93 % of control
CC/C(=N/OC(=O)N(C)C)c1ccccc1 | 104 % of control
CCCCCC(C)(O)CC (stereo unspecified) | 96 % of control
O=C(O)CSc1n[nH]c(=O)[nH]c1=O | 113 % of control
Cc1ccnc2c1ccc1ccccc12 | 93 % of control
CS(=O)(=O)OCCN(CCOS(C)(=O)=O)c1cccc(C(F)(F)F)c1 | 86 % of control
Nc1nc2c(c(=O)[nH]1)NC(CCNc1ccc(C(=O)NC(CCC(=O)O)C(=O)O)cc1)CN2 (stereo unspecified) | 115 % of control
O=C(OC1CC2CCC1CC2)c1ccc([N+](=O)[O-])cc1 (stereo unspecified) | 92 % of control
COc1nccnc1NS(=O)(=O)c1ccc(N)cc1 | 102 % of control
